test: drug combination growth inhibition, ovarian cancer – cell-based, oncology-focused library, rucaparib conditional, profiling panel (AID 1508598); conditions: patient-derived ovarian cancer cells, CellTiter-Glo viability, 144 h; at 1.25 µM; OCI-P5x cells; without rucaparib; active compounds read low
For each record, write down the corresponding viability.
Use % as the unit, but write only the number.

Q: Which value of viability has been reported for "C#Cc1cccc(Nc2ncnc3cc(OC)c(OCCCCCCC(=O)NO)cc23)c1" in the records?
Ans: 21.8

Q: Try the compound "Cc1ccc(NC(=O)c2cccc(C(C)(C)C#N)c2)cc1Nc1ccc2ncn(C)c(=O)c2c1"
Ans: 81.8

Q: Try the compound "C=CC(=O)Nc1cccc(Oc2nc(Nc3ccc(N4CCN(C)CC4)cc3OC)ncc2Cl)c1"
Ans: 94.6

Q: Try the compound "C=C(c1ccc(C(=O)O)cc1)c1cc2c(cc1C)C(C)(C)CCC2(C)C"
Ans: 126

Q: Try the compound "CS(=O)(=O)N1CCc2c(-c3cnc(N)nc3)nc(N3CCOCC3)nc21"
Ans: 97

Q: Try the compound "Cc1ccc(C(=O)Nc2ccc(CN3CCN(C)CC3)c(C(F)(F)F)c2)cc1C#Cc1cnc2cccnn12"
Ans: 28.1

Q: Try the compound "CN1CCN(c2ccc(OC(F)(F)F)c(Nc3ncc4c(n3)-c3c(c(C(N)=O)nn3CCO)CC4)c2)CC1"
Ans: 13.7

Q: Try the compound "C/C(=C\C(=O)Nc1ccccc1C(=O)O)c1ccc2ccccc2c1"
Ans: 118

Q: Try the compound "Cc1cnc(NC(=O)Nc2cc(Br)c(C)cc2OC[C@@H]2CNCCO2)cn1"
Ans: 85.9

* * *

assay: drug combination growth inhibition, ovarian cancer – cell-based, oncology-focused library, rucaparib conditional, profiling panel (AID 1508598); settings: patient-derived ovarian cancer cells, CellTiter-Glo viability, 144 h; at 0.0781 µM; OCI-C5x cells; without rucaparib; active compounds read low
Observable: viability (%)
Use % as the unit, but write only the number.

Q: Which value of viability has been reported for "CN[C@H]1CN(c2ccc3c(=O)c(C(=O)O)cn(-c4nccs4)c3n2)C[C@@H]1OC" in the records?
Ans: 92.5

Q: Try the molecule "O=C(NOC[C@H](O)CO)c1ccc(F)c(F)c1Nc1ccc(I)cc1F"
Ans: 94.3

Q: Try the molecule "Cc1cc(Nc2nc(N[C@@H](C)c3ncc(F)cn3)ncc2Cl)n[nH]1"
Ans: 104

Q: Try the molecule "Cc1ccc(F)c(NC(=O)Nc2ccc(-c3cccc4[nH]nc(N)c34)cc2)c1"
Ans: 110

Q: Try the molecule "O=C(NC1CCNCC1)c1[nH]ncc1NC(=O)c1c(Cl)cccc1Cl"
Ans: 118

Q: Try the molecule "CN(C)C/C=C/C(=O)Nc1cc2c(Nc3ccc(F)c(Cl)c3)ncnc2cc1O[C@H]1CCOC1"
Ans: 69.5

Q: Try the molecule "O=C(Nc1ccccc1-c1cn2c(CN3CCNCC3)csc2n1)c1cnc2ccccc2n1"
Ans: 110

Q: Try the molecule "S=C(NCc1ccc2c(c1)OCO2)N1CCN(c2ncnc3c2oc2ccccc23)CC1"
Ans: 111

* * *

assay: galactose survival enhancers in mitochondrial complex I cybrids – cell-based, galactose medium, ATP luminescence, primary screen (AID 1645843); details: complex I mutant cybrid cells, 72 h, active compounds read high;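 also: positive z means more ATP and so rescue of galactose-driven cybrid death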
Use 0.5 as the dividing line for z-score, with the line itself on the yes (1) side and lower values as no (0).

Q: // inclusive: z-score at least 0.5? input: "COc1cc(NC(=O)c2ccccn2)ccc1Cl"
Ans: yes (1)

Q: Try the compound "COc1cc2ncnc(Nc3ccc(Oc4ccccc4)cc3)c2cc1OC"
Ans: no (0)

Q: Try the compound "O=C1NC(=O)/C(=C/c2ccc(-c3ccc(F)cc3O)o2)S1"
Ans: yes (1)

Q: Try the compound C[C@@H]1O[C@@]2(CS1)CN1CCC2CC1 (racemic)
Ans: no (0)

Q: Try the compound "O=C(c1ccc(F)cc1)C1CCN(CCCCc2ccccc2)CC1"
Ans: no (0)

Q: Try the compound "COc1ccc([C@H]2CNC(=O)C2)cc1OC1CCCC1"
Ans: no (0)

Q: Try the compound "N[C@H](C(=O)O)c1ccc(C(=O)O)c(C(=O)O)c1"
Ans: no (0)

Q: Try the compound "FC(F)(F)c1cccc(-c2noc(-c3cc(-c4ccccc4)c(C(F)(F)F)s3)n2)c1"
Ans: no (0)

Q: Try the compound "CN(C)c1nc(N)c(C(=O)Nc2cccnc2)nc1Cl"
Ans: yes (1)

Q: Try the compound "Cc1c(NC(=O)N2CCOCC2)ccc2c1c1ccccc1n2C(C)C"
Ans: yes (1)

Q: Try the compound CN(C)CCC1(c2ccc(Cl)cc2)Cc2ccccc2C(=O)O1 (stereo not drawn)
Ans: no (0)

Q: Try the compound "CCCn1c(=O)c2[nH]c(-c3ccccc3)nc2n(CCC)c1=O"
Ans: no (0)

Q: Try the compound "N[C@H](C(=O)O)c1ccc(C(=O)O)c(O)c1"
Ans: no (0)

Q: Try the compound "CN(Cc1ccccc1)C(=O)[C@H](Cc1ccc2ccccc2c1)NC(=O)[C@@H]1CCCN1C(=O)Nc1ccccc1[N+](=O)[O-]"
Ans: yes (1)

Q: Try the compound "COc1cc(C[C@H]2C(=O)OC[C@@H]2Cc2ccc(OC)c(OC)c2)ccc1O"
Ans: no (0)

Q: Try the compound "CC#CCOC(=O)C1=CCCN(C)C1"
Ans: no (0)

Q: Try the compound "CS(=O)(=O)c1ccc(C(=O)Nc2ccc(Cl)c(-c3ccccn3)c2)c(Cl)c1"
Ans: no (0)

Q: Try the compound CNc1cc(OC)c(C(=O)N[C@@H]2CCN(Cc3ccccc3)[C@@H]2C)cc1Cl (racemic)
Ans: no (0)

Q: Try the compound "CC(=O)OCCNC(=O)c1cccnc1"
Ans: no (0)

Q: Try the compound "C1CC[C@H]2[N]=[Pt]=[N][C@@H]2C1.O=C(O)C(=O)O"
Ans: yes (1)

Q: Try the compound "COC(=O)/C=C/c1cc(O)ccc1O"
Ans: no (0)

Q: Try the compound "CCS(=O)(=O)N1CCC[C@@H]2CN3CCc4cc(OC)ccc4[C@@H]3C[C@@H]21"
Ans: no (0)

Q: Try the compound "COc1cccc(NC(=O)/C=C/c2ccc(Cl)cc2)c1"
Ans: yes (1)
